System: STING variants (HAQ) (Homo sapiens, UniProt Q86WV6, G230A/R293Q/R71H)
Construct: host or cells: HEK-Blue ISG KO-STING cells (Invivogen, hkb-kostg)
Sequence (Q86WV6 whole entry R71H/G230A/R293Q): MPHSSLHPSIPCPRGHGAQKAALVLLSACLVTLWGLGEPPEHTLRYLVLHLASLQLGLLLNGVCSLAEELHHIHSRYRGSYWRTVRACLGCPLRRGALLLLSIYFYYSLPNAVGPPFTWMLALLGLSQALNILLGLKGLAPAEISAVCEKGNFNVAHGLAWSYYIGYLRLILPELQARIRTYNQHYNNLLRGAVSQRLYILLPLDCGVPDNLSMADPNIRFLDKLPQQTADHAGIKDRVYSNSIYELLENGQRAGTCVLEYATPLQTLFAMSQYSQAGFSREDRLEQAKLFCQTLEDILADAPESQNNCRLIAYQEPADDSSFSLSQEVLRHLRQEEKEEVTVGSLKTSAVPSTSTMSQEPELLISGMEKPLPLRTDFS
Test Description: SEAP reporter assay in HEK-Blue ISG KO-STING cells transfected with STING HAQ variant (Method 2, 0.0625 ng vector)
Format: cell-based
Condition Context: compound concentration 5 (mM as printed); 24 h; SEAP signal ratio to 0.5% DMSO
Endpoint Name: Fold change related to DMSO control, HAQ (fold)
Reply numerically in fold, unit not repeated.

These recorded examples may help you get a feel for the data.
>  <Compound>
CCn1nc(C)cc1C(=O)Nc1nc2cc(C(N)=O)cc3c2n1CC(C)(C)CN3

>  <Unit Descriptor>
fold

>  <Fold change related to DMSO control, HAQ>
49.72

$$$$
>  <Compound>
CCn1nc(C)c(F)c1C(=O)Nc1nc2cc(C(N)=O)cc3c2n1CCCO3

>  <Unit Descriptor>
fold

>  <Fold change related to DMSO control, HAQ>
8.89

$$$$
>  <Compound>
CCn1nc(C)cc1C(=O)Nc1nc2cc(C(N)=O)cc3c2n1CC1(CC1)CO3

>  <Unit Descriptor>
fold

>  <Fold change related to DMSO control, HAQ>
8.67

$$$$
>  <Compound>
CC[C@H]1COc2cc(C(N)=O)cc3nc(NC(=O)c4c(Br)c(C)nn4CC)n1c23

>  <Unit Descriptor>
fold

>  <Fold change related to DMSO control, HAQ>
1.94

$$$$
>  <Compound>
CCn1nc(C)c(Br)c1C(=O)Nc1nc2cc(C(N)=O)cc3c2n1[C@@H](C(C)C)CO3

>  <Unit Descriptor>
fold

>  <Fold change related to DMSO control, HAQ>
1.17

$$$$

Recorded Fold change related to DMSO control, HAQ for CCn1nc(C)cc1C(=O)Nc1nc2cc(C(N)=O)cc3c2n1CCCN3C with STING variants (HAQ) (Homo sapiens, UniProt Q86WV6, G230A/R293Q/R71H), please? 73.46

Look up Fold change related to DMSO control, HAQ with STING variants (HAQ) (Homo sapiens, UniProt Q86WV6, G230A/R293Q/R71H) for this molecule: CCn1nc(C)c(Cl)c1C(=O)Nc1nc2cc(C(N)=O)cc3c2n1CC(C)(C)CO3 1.59

Lab request: please report Fold change related to DMSO control, HAQ under test system STING variants (HAQ) (Homo sapiens, UniProt Q86WV6, G230A/R293Q/R71H) for CCn1nc(C)cc1C(=O)Nc1nc2cc(C(N)=O)cc3c2n1C[C@H](C)CO3 18.10

---

System: STING variants (HAQ) (Homo sapiens, UniProt Q86WV6, G230A/R293Q/R71H)
Construct: host or cells: HEK-Blue ISG KO-STING cells (Invivogen, hkb-kostg)
Test Description: SEAP reporter assay in HEK-Blue ISG KO-STING cells transfected with STING HAQ variant (Method 2, 0.0625 ng vector)
Type: cell-based
Condition Context: compound concentration 5 (mM as printed); 24 h; SEAP signal ratio to 0.5% DMSO
Doc: threshold 8 fold (exclusive). Items with Fold change related to DMSO control, HAQ beneath it return Satisfied; others return Not satisfied.

Please review the following examples before continuing.
>  <Compound>
CCn1nc(C)c(F)c1C(=O)Nc1nc2cc(C(N)=O)cc3c2n1CC1(COC1)CO3 [Example 72]

>  <Category>
Satisfied

$$$$
>  <Compound>
CC[C@H]1COc2cc(C(N)=O)cc3nc(NC(=O)c4c(F)c(C)nn4CC)n1c23 [Example 47]

>  <Category>
Not satisfied

$$$$
>  <Compound>
CCn1nc(C)cc1C(=O)Nc1nc2cc(C(N)=O)cc3c2n1[C@@H](CO)CO3 [Example 58]

>  <Category>
Satisfied

$$$$
>  <Compound>
CCn1nc(C)c(Cl)c1C(=O)Nc1nc2cc(C(N)=O)cc3c2n1[C@@H](C(C)C)CO3 [Example 55]

>  <Category>
Satisfied

$$$$
>  <Compound>
CCn1nc(C)cc1C(=O)Nc1nc2cc(C(N)=O)cc3c2n1C[C@@H](CO)O3 [Example 52]

>  <Category>
Satisfied

$$$$
>  <Compound>
CCn1nc(C)cc1C(=O)Nc1nc2cc(C(N)=O)cc3c2n1CCCO3 [Example 57]

>  <Category>
Satisfied

$$$$
>  <Compound>
CCn1nc(C)cc1C(=O)Nc1nc2cc(C(N)=O)cc3c2n1C[C@@H](C)CO3 [Example 70]

>  <Category>
Not satisfied

$$$$
>  <Compound>
CCn1nc(C)c(F)c1C(=O)Nc1nc2cc(C(N)=O)cc3c2n1CCCN3C [Example 66]

>  <Category>
Not satisfied

$$$$
>  <Compound>
C=CCCCn1nc(C)cc1C(=O)Nc1nc2cc(C(N)=O)cc3c2n1[C@@H](CCCN)CO3 [Example 50]

>  <Category>
Satisfied

$$$$
>  <Compound>
CC[C@H]1COc2cc(C(N)=O)cc3nc(NC(=O)c4c(Cl)c(C)nn4CC)n1c23 [Example 48]

>  <Category>
Satisfied

$$$$

Just wondering, is Fold change related to DMSO control, HAQ of CCn1nc(C)cc1C(=O)Nc1nc2cc(C(N)=O)cc3c2n1CC1(COC1)CO3 [Example 59] below 8 fold? Satisfied

Determine if C=Cc1c(C)nn(CC)c1C(=O)Nc1nc2cc(C(N)=O)cc3c2n1[C@@H](CCCN)CO3 [Example 51] shows Fold change related to DMSO control, HAQ strictly lower than 8 fold. Satisfied

Determine if CCn1nc(C)c(Br)c1C(=O)Nc1nc2cc(C(N)=O)cc3c2n1CC(C)(C)CO3 [Example 46] shows Fold change related to DMSO control, HAQ strictly lower than 8 fold. Satisfied

Is Fold change related to DMSO control, HAQ of CCn1nc(C)cc1C(=O)Nc1nc2cc(C(N)=O)cc3c2n1[C@@H](C)CCO3 [Example 62] strictly below 8 fold? Not satisfied

For this compound, is Fold change related to DMSO control, HAQ lower than 8 fold? CCn1nc(C)c(F)c1C(=O)Nc1nc2cc(C(N)=O)cc3c2n1CC(C)(C)CO3 [Example 44] Not satisfied

Does this compound meet the criterion Fold change related to DMSO control, HAQ < 8 fold? CCn1nc(C)c(F)c1C(=O)Nc1nc2cc(C(N)=O)cc3c2n1[C@@H](C)CCO3 [Example 63] Not satisfied

I'd appreciate it if you could check whether CCn1nc(C)c(F)c1C(=O)Nc1nc2cc(C(N)=O)cc3c2n1CC1(CC1)CO3 [Example 64] has Fold change related to DMSO control, HAQ smaller than 8 fold. Satisfied

Quick check: Fold change related to DMSO control, HAQ of CCn1nc(C)cc1C(=O)Nc1nc2cc(C(N)=O)cc3c2n1CC(C)(C)CN3C [Example 68] under 8 fold? Not satisfied

Determine whether this compound shows Fold change related to DMSO control, HAQ lower than 8 fold (ties excluded): CCn1nc(C)cc1C(=O)Nc1nc2cc(C(N)=O)cc3c2n1CC(F)(F)CO3 [Example 53] Satisfied

Given CCN1CC(C)(C)Cn2c(NC(=O)c3cc(C)nn3CC)nc3cc(C(N)=O)cc1c32 [Example 69] , is recorded Fold change related to DMSO control, HAQ strictly lower than 8 fold? Not satisfied

---

Recorded EC50 values for a group of compounds are listed next.
System: STING (Homo sapiens, UniProt Q86WV6, G230A/H232R/R293Q/R71H)
Construct: THP1 was purchased from National Collection of Authenticated Cell Cultures (Cat #TCHu 57)
Sequence (Q86WV6 whole entry R71H/G230A/H232R/R293Q): as the sequence (Q86WV6 whole entry R71H/G230A/R293Q) above, with H232R counted along it
Test Description: IFNβ release from THP1 by STING activation (hIFNβ ELISA)
Condition Context: THP1 cells, 24 h, IFN-β in supernatant; inactive = IFNβ not detected at the maximum concentration of compounds
Enter your answer as a number in µM; do not include the unit.

>  <Compound>
CCn1nc(C)cc1C(=O)Nc1nc2cc(C(N)=O)cc3c2n1CC(C)(C)CN3

>  <EC50, µM>
14.9

$$$$

Request: EC50, test system STING (Homo sapiens, UniProt Q86WV6, G230A/H232R/R293Q/R71H), entry CCn1nc(C)cc1C(=O)Nc1nc2cc(C(N)=O)cc3c2n1CC1(CCC1)CO3 20.8

---

Parameter: EC50. Scope: all listed entries.
System: STING (Homo sapiens, UniProt Q86WV6, G230A/H232R/R293Q/R71H)
Construct: THP1 was purchased from National Collection of Authenticated Cell Cultures (Cat #TCHu 57); host or cells: THP1
Test Description: IFNβ release from THP1 by STING activation (hIFNβ ELISA)
Format: cell-based
Condition Context: THP1 cells, 24 h, IFN-β in supernatant; inactive = IFNβ not detected at the maximum concentration of compounds

>  <Compound>
CCn1nc(C)cc1C(=O)Nc1nc2cc(C(N)=O)cc3c2n1CC(C)(C)CO3

>  <EC50>
22.1 µM

$$$$
>  <Compound>
CCn1nc(C)c(F)c1C(=O)Nc1nc2cc(C(N)=O)cc3c2n1CC1(COC1)CO3

>  <EC50>
> 38.5 µM

$$$$
>  <Compound>
CCn1nc(C)cc1C(=O)Nc1nc2cc(C(N)=O)cc3c2n1CC(F)(F)CO3

>  <EC50>
> 22.7 µM

$$$$
>  <Compound>
CCn1nc(C)cc1C(=O)Nc1nc2cc(C(N)=O)cc3c2n1CC(C)(C)CN3CCOC

>  <EC50>
6.8 µM

$$$$
>  <Compound>
CCn1nc(C)c(F)c1C(=O)Nc1nc2cc(C(N)=O)cc3c2n1[C@@H](C(C)C)CO3

>  <EC50>
> 16.7 µM

$$$$
>  <Compound>
CCn1nc(C)c(F)c1C(=O)Nc1nc2cc(C(N)=O)cc3c2n1CCCN3C

>  <EC50>
2.8 µM

$$$$
>  <Compound>
CCn1nc(C)c(F)c1C(=O)Nc1nc2cc(C(N)=O)cc3c2n1CC1(CC1)CO3

>  <EC50>
> 12.8 µM

$$$$
>  <Compound>
CCn1nc(C)cc1C(=O)Nc1nc2cc(C(N)=O)cc3c2n1CC1(CC1)CO3

>  <EC50>
> 16.7 µM

$$$$
>  <Compound>
CCn1nc(C)cc1C(=O)Nc1nc2cc(C(N)=O)cc3c2n1CC(C)(C)CN3CCCOC

>  <EC50>
11.8 µM

$$$$
>  <Compound>
CCn1nc(C)c(Br)c1C(=O)Nc1nc2cc(C(N)=O)cc3c2n1CC(C)(C)CO3

>  <EC50>
> 5.6 µM

$$$$

We next turn to a different molecule, shown below.
What does the record list as EC50 for CCn1nc(C)cc1C(=O)Nc1nc2cc(C(N)=O)cc3c2n1CC1(COC1)CO3 ? > 21.6 µM
